# assayed-target: T1, dT14-3-3_biCHK1, unphosphorylated (Tobacco | )
# T1 chain: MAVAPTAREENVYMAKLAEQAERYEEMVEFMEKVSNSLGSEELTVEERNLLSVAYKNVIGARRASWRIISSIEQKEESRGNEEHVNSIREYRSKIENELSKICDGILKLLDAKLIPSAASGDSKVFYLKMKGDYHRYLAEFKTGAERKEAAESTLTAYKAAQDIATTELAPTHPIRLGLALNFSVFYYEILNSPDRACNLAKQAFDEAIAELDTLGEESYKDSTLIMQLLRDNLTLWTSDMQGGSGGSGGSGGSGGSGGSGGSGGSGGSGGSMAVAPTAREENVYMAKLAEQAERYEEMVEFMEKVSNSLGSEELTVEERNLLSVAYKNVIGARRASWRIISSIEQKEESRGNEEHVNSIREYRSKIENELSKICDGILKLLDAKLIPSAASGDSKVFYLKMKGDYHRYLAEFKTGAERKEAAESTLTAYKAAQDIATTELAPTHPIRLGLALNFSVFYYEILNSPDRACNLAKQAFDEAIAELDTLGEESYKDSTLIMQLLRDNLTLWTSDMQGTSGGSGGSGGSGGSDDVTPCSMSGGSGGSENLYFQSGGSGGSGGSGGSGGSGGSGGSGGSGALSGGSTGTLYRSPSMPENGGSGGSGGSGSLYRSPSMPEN
# method-summary: FP
value-kind: Kd (µM)
Respond with the bare value in µM.

Q. Report Kd for QGLLDALDLAS [mExoS peptide (C-terminal region of exoenzyme S)] please.
A. 7.57
